Here the recorded Ki is given for each entry.
biological target: BRD4 (BDII_E352-M457) (Homo sapiens, UniProt O60885); test: TR-FRET bromodomain binding assay, BRD4 second bromodomain; details: His-tagged BD2, Alexa647-labeled probe 30 nM; Ki calculated from IC50
Output spec: scalar in nM, unitless text.

Some solved cases for reference:
Cc1cccc(Oc2ccccc2-c2cc(C(N)=O)c(C)[nH]2)c1 : 1170
Cc1[nH]c(-c2ccccc2Oc2ccc3c(c2)CCC3)cc1C(N)=O : 1230

Now turn to the next molecule.
Prompt: Give its Ki value. Item: `Cc1[nH]c(-c2cc(S(N)(=O)=O)ccc2Oc2ccc(F)cc2F)cc1C(N)=O`
Response: 757

---

molecular target: BRD4 (BDI_K57-E168) (Homo sapiens); construct: BD1: amino acids K57-E168; test: TR-FRET bromodomain binding assay, BRD4 first bromodomain; details: His-tagged BD1, Alexa647-labeled probe 100 nM; Ki calculated from IC50
Examples of molecules with documented Ki follow.
Give the quantity in µM, number only.

Cc1[nH]c(-c2ccccc2NCC2CCN(C(=O)OC(C)(C)C)CC2)cc1C(N)=O [Example 41] : 0.48
Cc1[nH]c(-c2ccccc2Oc2cccnc2)cc1C(N)=O [Example 126] : 0.0834
Cc1n[nH]c(C)c1-c1ccc(-c2cc(C(N)=O)c(C)[nH]2)cc1 [Example 112] : 5.43
Cc1[nH]c(-c2ccccc2NCc2ccc(Br)cc2)cc1C(N)=O [Example 32] : 5.17

Now take the following molecule into account.
Prompt: # Ki lookup, item Cc1[nH]c(-c2ccccc2Oc2ccc(C3CCCC3)cc2)cc1C(N)=O [Example 124]
Response: 4.6

---

Below, each entry is listed alongside its reported pKi.
molecular target: BRD4 (BDII_E352-M457) (Homo sapiens, UniProt O60885); experiment: TR-FRET bromodomain binding assay, BRD4 second bromodomain; conditions: His-tagged BD2, Alexa647-labeled probe 30 nM; Ki calculated from IC50
Field pKi (float): negative decimal logarithm of the concentration in molar.

Cc1[nH]c(-c2ccccc2Oc2ccc3[nH]ccc3c2)cc1C(N)=O : 5.91
Cc1[nH]c(-c2ccccc2Oc2ccccc2)cc1C(N)=O : 6.45
Cc1[nH]c(-c2ccccc2NCc2cc(Br)cs2)cc1C(N)=O : 5.64

Consider the record given below.
Prompt: Dear colleague, I am looking for the recorded pKi of the following compound: `Cc1[nH]c(-c2ccccc2Oc2ccccc2F)cc1C(N)=O`
Response: 6.14

---

molecular target: BRD4 (BDI_K57-E168) (Homo sapiens); construct: BD1: amino acids K57-E168; test: TR-FRET bromodomain binding assay, BRD4 first bromodomain; conditions: His-tagged BD1, Alexa647-labeled probe 100 nM; Ki calculated from IC50
endpoint: pKi
Hey, just a heads up that pKi is the negative log base 10 of the concentration in molar.

// worked examples, pKi included
Cc1[nH]c(-c2ccccc2NS(=O)(=O)CC(F)(F)F)cc1C(N)=O [Example 86] : 5.52
Cc1[nH]c(-c2ccccc2NS(=O)(=O)CCC(F)(F)F)cc1C(N)=O [Example 82] : 5.53
COC(=O)CCNC(=O)c1cc(-c2ccc(-c3c(C)noc3C)cc2)[nH]c1C [Example 93] : 5.29
Cc1[nH]c(-c2ccccc2NC2CCCCCC2)cc1C(N)=O [Example 73] : 6.06
Cc1[nH]c(-c2ccccc2NCC2CCCO2)cc1C(N)=O (centres unmarked) [Example 13] : 6.11
Cc1[nH]c(-c2cccc3cc[nH]c23)cc1C(N)=O [Example 164] : 6.00
Cc1[nH]c(-c2ccccc2-n2cnc3ccc(O)cc32)cc1C(N)=O [Example 145] : 5.92
CC(=O)n1cc(CN(CC2CCCC2)c2ccccc2-c2cc(C(N)=O)c(C)[nH]2)c2ccccc21 [Example 58] : 5.33

Prompt: Which measured pKi value corresponds to Cc1[nH]c(-c2ccccc2NC2CCSCC2)cc1C(N)=O [Example 68] ?
Response: 6.82

Prompt: Next up: Cc1[nH]c(-c2ccccc2Oc2cccc(C#N)c2)cc1C(N)=O [Example 127]
Response: 6.63

Prompt: What do you have for Cc1[nH]c(-c2cc(CCO)ccc2OCc2ccccc2)cc1C(N)=O [Example 167] ?
Response: 6.20

---

Let's look at some compounds and their measured pKi.
target: BRD4 (BDI_K57-E168) (Homo sapiens, UniProt O60885); construct: BD1: amino acids K57-E168; assay: TR-FRET bromodomain binding assay, BRD4 first bromodomain; conditions: His-tagged BD1, Alexa647-labeled probe 100 nM; Ki calculated from IC50
# pKi: negative log10 of molar concentration; output just the value

Please review the following examples before continuing.
Cc1[nH]c(-c2cccc(N)c2)cc1C(N)=O : 5.28
CC(=O)Nc1ccccc1-c1cc(C(N)=O)c(C)[nH]1 : 5.53

Please look at the following compound next.
Prompt: Which pKi is listed for `Cc1[nH]c(-c2ccccc2NCc2ccc(Cl)c(Cl)c2)cc1C(N)=O` ?
Response: 5.02

---

target: BRD4 (BDII_E352-M457) (Homo sapiens, UniProt O60885); assay: TR-FRET bromodomain binding assay, BRD4 second bromodomain; conditions: His-tagged BD2, Alexa647-labeled probe 30 nM; Ki calculated from IC50
Recorded pKi by entry
The read-out pKi is expressed as -log10 of concentration in moles per litre.

Cc1[nH]c(-c2ccccc2NCc2ccc(CO)o2)cc1C(N)=O : 5.31
Cc1[nH]c(-c2ccc(-c3ccc(NS(C)(=O)=O)cc3)cc2)cc1C(N)=O : 5.23
Cc1[nH]c(-c2ccccc2NC2CCOC2)cc1C(N)=O (stereo not drawn) : 5.16

Prompt: So what does the record say about pKi for `Cc1[nH]c(-c2ccccc2NCC2CCCC2)cc1C(N)=O` ?
Response: 6.14

---

Biological target: BRD4 (BDI_K57-E168) (Homo sapiens, UniProt O60885)
Construct: BD1: amino acids K57-E168
Assay: TR-FRET bromodomain binding assay, BRD4 first bromodomain
Details: His-tagged BD1, Alexa647-labeled probe 100 nM; Ki calculated from IC50
Method: A time-resolved fluorescence resonance energy transfer (TR-FRET) assay was used to determine the affinities of compounds of the Examples listed in Table 1 for each bromodomain of BRD4. […] Compound dilution series were prepared in DMSO via a 3-fold serial dilution from 2.5 mM to 42 nM. […] After a one-hour incubation at room temperature, TR-FRET ratios were determined using an Envision multilabel plate reader (Ex 340, Em […]). […]
We label by threshold. Values of Ki strictly beneath 4 µM are MET. Values of 4 µM and up are NOT MET.

Cc1[nH]c(-c2ccccc2NC[C@H]2CC[C@@H](NC(=O)OC(C)(C)C)CC2)cc1C(N)=O [Example 45] : MET
Cc1[nH]c(-c2ccccc2NCc2ccc(C(F)(F)F)cc2)cc1C(N)=O [Example 28] : NOT MET
Cc1[nH]c(-c2ccccc2NCc2cc(C(F)(F)F)cc(C(F)(F)F)c2)cc1C(N)=O [Example 21] : NOT MET
Cc1[nH]c(-c2ccc(-c3cccc(N4CCOCC4)c3)cc2)cc1C(N)=O [Example 105] : NOT MET
Cc1[nH]c(-c2ccccc2NCc2cccc(N)c2)cc1C(N)=O [Example 53] : MET

Prompt: is_below(Ki, 4 µM) for Cc1[nH]c(-c2ccc(-c3ccc(CN4CCN(C)CC4)cc3)cc2)cc1C(N)=O [Example 97] ?
Response: MET

Prompt: Try the molecule Cc1[nH]c(-c2cccc(-c3cccnc3)c2)cc1C(N)=O [Example 154]
Response: MET

---

target: BRD4 (BDII_E352-M457) (Homo sapiens, UniProt O60885); experiment: TR-FRET bromodomain binding assay, BRD4 second bromodomain; conditions: His-tagged BD2, Alexa647-labeled probe 30 nM; Ki calculated from IC50
# key: entry, value: pKi
Quick note: pKi means taking -log10 of the concentration in moles per liter.

Cc1[nH]c(-c2ccccc2NCc2cccc(Cl)c2)cc1C(N)=O : 5.49

Prompt: Data request, read-out pKi, for `Cc1[nH]c(-c2ccccc2NCc2ccccc2Cl)cc1C(N)=O`
Response: 5.46

Prompt: Same read-out for `Cc1[nH]c(-c2ccccc2NCc2ccc(N(C)C)cc2)cc1C(N)=O` ?
Response: 5.45

Prompt: Try `Cc1[nH]c(-c2ccccc2NS(=O)(=O)Cc2ccccc2)cc1C(N)=O` next.
Response: 6.19

Prompt: Same question for `Cc1[nH]c(-c2ccc(-c3ccoc3)cc2)cc1C(N)=O` please.
Response: 5.27

Prompt: Repeat for the following compound: `Cc1[nH]c(-c2ccccc2Oc2ccc3cc[nH]c3c2)cc1C(N)=O`
Response: 5.76

Prompt: Consider next the compound Cc1[nH]c(-c2ccccc2NC2CCc3ccccc32)cc1C(N)=O (centres unmarked) in the same way.
Response: 6.09

Prompt: Follow-up entry: `Cc1[nH]c(-c2ccc(-c3ccncc3)cc2)cc1C(N)=O`
Response: 5.36
